ASSAY SYSTEM: EGFR L858R/T790M/C797S (Homo sapiens, UniProt P00533, C797S/L858R/T790M)
Sequence (P00533 25-1210 T790M/C797S/L858R): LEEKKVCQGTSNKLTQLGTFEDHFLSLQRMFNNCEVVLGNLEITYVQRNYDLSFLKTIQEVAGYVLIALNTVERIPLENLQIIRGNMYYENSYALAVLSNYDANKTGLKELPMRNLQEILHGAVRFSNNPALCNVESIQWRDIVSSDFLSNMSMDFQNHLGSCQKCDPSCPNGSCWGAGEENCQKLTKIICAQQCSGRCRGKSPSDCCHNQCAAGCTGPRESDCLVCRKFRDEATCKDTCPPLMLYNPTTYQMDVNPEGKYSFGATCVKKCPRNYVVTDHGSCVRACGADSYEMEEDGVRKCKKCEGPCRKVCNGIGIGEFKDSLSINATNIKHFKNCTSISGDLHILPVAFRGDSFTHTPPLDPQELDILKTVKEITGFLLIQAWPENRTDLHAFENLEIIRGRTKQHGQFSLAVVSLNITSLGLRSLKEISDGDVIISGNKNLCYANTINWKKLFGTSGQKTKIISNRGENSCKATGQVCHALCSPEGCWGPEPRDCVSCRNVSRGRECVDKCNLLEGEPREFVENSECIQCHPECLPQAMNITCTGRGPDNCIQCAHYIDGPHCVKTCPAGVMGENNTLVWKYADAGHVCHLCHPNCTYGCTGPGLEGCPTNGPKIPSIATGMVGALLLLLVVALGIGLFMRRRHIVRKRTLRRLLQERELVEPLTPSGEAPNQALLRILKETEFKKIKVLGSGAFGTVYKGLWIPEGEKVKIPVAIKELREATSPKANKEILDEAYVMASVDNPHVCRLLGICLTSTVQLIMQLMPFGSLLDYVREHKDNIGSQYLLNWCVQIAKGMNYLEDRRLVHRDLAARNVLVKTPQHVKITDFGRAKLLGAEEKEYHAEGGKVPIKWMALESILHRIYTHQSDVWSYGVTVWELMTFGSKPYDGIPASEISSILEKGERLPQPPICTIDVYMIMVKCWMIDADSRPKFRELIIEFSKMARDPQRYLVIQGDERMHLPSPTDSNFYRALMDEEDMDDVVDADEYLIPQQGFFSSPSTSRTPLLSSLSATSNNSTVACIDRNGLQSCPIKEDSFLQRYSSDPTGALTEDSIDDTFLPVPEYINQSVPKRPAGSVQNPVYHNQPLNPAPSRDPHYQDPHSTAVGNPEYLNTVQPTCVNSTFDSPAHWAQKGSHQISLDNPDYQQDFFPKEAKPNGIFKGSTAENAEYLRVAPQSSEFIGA
TEST DETAILS: Biochemical EGFR kinase assay (Lance Ultra TR-FRET), triple mutant L858R/T790M/C797S
EXPERIMENTAL PARAMETERS: ATP at Km; read-out: IC50 L858R/T790M/C797S, Km ATP
pIC50: −log10 of the molar value.
MEASURE: pIC50

1. CC(C)(F)c1ccc(-c2cnc(Nc3ccnc(-c4cnn(S(=O)(=O)C5CC5)c4)n3)cc2N[C@H]2CC[C@@H](CO)CC2)nc1 = 9.10
2. O=S(=O)(C1CC1)n1cc(-c2nccc(Nc3cc(N[C@H]4CC[C@@H](F)CC4)c(-c4cnc(OC5CCOCC5)cn4)cn3)n2)cn1 = 10.00
3. CC(C)(O)c1ccc(-c2cnc(Nc3ccnc(-c4cnn(S(=O)(=O)C5CC5)c4)n3)cc2N[C@H]2CC[C@@H](CO)CC2)nc1 = 9.70
4. CC(C)(O)[C@H]1CC[C@@H](Nc2cc(Nc3ccnc(-c4cnn(S(=O)(=O)C5CC5)c4)n3)ncc2-c2cccc(F)n2)CC1 = 9.15
5. O=S(=O)(C1CC1)n1cc(-c2nccc(Nc3cc(N[C@H]4CCC[C@H](CO)C4)c(-c4ccc(C(O)C(F)(F)F)cn4)cn3)n2)cn1 (stereo partly drawn) = 9.30
6. CC(C)(O)[C@H]1CC[C@@H](Nc2cc(Nc3ccnc(-c4cnn(S(=O)(=O)C5CC5)c4)n3)ncc2-c2ccc(CC(F)(F)F)cn2)CC1 = 8.27

====

ASSAY SYSTEM: EGFR del19/C797S (Homo sapiens, UniProt P00533, C797S/DEL746-750)
Sequence (P00533 with tags, fused parts or gaps DEL746-750/C797S): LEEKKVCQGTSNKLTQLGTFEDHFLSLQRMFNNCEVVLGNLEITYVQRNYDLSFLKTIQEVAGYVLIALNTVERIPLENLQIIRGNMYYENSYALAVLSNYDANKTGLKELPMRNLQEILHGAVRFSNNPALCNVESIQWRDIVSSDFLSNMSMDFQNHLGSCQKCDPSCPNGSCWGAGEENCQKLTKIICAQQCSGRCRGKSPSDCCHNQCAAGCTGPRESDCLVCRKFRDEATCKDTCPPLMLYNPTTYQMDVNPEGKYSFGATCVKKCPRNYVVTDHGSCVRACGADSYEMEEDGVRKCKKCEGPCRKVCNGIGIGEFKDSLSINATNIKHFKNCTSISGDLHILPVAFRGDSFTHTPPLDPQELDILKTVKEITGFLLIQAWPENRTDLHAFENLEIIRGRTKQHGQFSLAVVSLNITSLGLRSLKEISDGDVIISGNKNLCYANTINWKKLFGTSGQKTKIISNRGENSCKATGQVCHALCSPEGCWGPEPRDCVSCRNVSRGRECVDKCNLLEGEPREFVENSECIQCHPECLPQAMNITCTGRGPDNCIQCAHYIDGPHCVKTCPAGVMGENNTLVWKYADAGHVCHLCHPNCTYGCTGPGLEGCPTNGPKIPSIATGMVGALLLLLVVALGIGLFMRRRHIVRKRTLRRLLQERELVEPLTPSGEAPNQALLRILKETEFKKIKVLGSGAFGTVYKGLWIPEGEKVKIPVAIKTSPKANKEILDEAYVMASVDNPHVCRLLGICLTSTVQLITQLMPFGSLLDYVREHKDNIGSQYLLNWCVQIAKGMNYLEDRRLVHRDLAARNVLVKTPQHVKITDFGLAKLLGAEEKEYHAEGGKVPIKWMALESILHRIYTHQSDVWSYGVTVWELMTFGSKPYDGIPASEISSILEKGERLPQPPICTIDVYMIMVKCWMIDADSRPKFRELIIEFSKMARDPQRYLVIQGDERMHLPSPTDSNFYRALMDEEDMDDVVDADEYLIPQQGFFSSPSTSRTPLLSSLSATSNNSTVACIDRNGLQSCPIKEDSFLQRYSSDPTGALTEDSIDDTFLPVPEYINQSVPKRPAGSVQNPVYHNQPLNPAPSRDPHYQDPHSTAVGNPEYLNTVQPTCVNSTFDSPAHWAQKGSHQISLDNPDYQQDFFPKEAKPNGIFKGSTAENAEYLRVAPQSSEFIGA
TEST DETAILS: Biochemical EGFR kinase assay (Lance Ultra TR-FRET), double mutant del19/C797S
EXPERIMENTAL PARAMETERS: IC50 del19/C797S, 100 μM ATP
MEASURE: log10(IC50) (log10 of the value in nM)

1. CN(C)CCOc1ccnc(-c2cnc(Nc3ccnc(-c4cnn(S(=O)(=O)C5CC5)c4)n3)cc2N[C@H]2CC[C@@](C)(O)CC2)c1 = 0.00
2. O=S(=O)(C1CC1)n1cc(-c2nccc(Nc3cc(N[C@H]4CC[C@@H](CO)CC4)c(-c4cccc(F)n4)cn3)n2)cn1 = -0.15
3. O=S(=O)(C1CC1)n1cc(-c2nccc(Nc3cc(N[C@H]4CCC[C@H](CO)C4)c(-c4ccc(CC(F)(F)F)cn4)cn3)n2)cn1 = 1.23
4. CC(F)(F)c1ccc(-c2cnc(Nc3ccnc(-c4cnn(S(=O)(=O)C5CC5)c4)n3)cc2N[C@H]2CC[C@@H](C(C)(C)O)CC2)nc1 = 1.27
5. CC(C)(O)[C@H]1CC[C@@H](Nc2cc(Nc3ccnc(-c4cnn(S(=O)(=O)C5CC5)c4)n3)ncc2-c2cnc(F)cn2)CC1 = 1.75
6. CN1CC(Oc2ccc(-c3cnc(Nc4ccnc(-c5cnn(S(=O)(=O)C6CC6)c5)n4)cc3N[C@H]3CC[C@@](C)(O)CC3)nc2)C1 = -0.70

====

ASSAY SYSTEM: EGFR wildtype (Homo sapiens)
TEST DETAILS: Biochemical EGFR kinase assay (Lance Ultra TR-FRET), wildtype
EXPERIMENTAL PARAMETERS: IC50 WT (nM) 100 μM ATP, 100 μM ATP
Please note: IC50 exactly at 200 nM is 0. Only values below 200 nM get 1.

1. C[C@]1(O)CC[C@@H](Nc2cc(Nc3ccnc(-c4cnn(S(=O)(=O)C5CC5)c4)n3)ncc2-c2ccc(C(F)(F)F)nn2)CC1 = 0
2. O=S(=O)(C1CC1)n1cc(-c2nccc(Nc3cc(N[C@H]4CC[C@@H](CO)CC4)c(-c4ccc(CO)cn4)cn3)n2)cn1 = 1
3. C[C@]1(O)CC[C@@H](Nc2cc(Nc3ccnc(-c4cnn(S(=O)(=O)C5CC5)c4)n3)ncc2-c2ccc(N3CCCC3)cn2)CC1 = 0
4. C[C@]1(O)CC[C@@H](Nc2cc(Nc3ccnc(-c4cnn(S(=O)(=O)C5CC5)c4)n3)ncc2-c2ccc(CN3CCOCC3)cn2)CC1 = 1
5. O=S(=O)(C1CC1)n1cc(-c2nccc(Nc3cc(N[C@H]4CC[C@H](CCO)CC4)c(-c4cc(C(F)F)ccn4)cn3)n2)cn1 = 0
6. CN(C)CCOc1cnc(-c2cnc(Nc3ccnc(-c4cnn(S(=O)(=O)C5CC5)c4)n3)cc2NC2CCC(C)(O)CC2)cn1 (centres unmarked) = 0
7. O=S(=O)(C1CC1)n1cc(-c2nccc(Nc3cc(N[C@H]4CC[C@@H](CO)CC4)c(-c4cc(CN5CCC(F)(F)CC5)ccn4)cn3)n2)cn1 = 0
8. C[C@]1(O)CC[C@@H](Nc2cc(Nc3ccnc(-c4cnn(S(=O)(=O)C5CC5)c4)n3)ncc2-c2ccc(N3CCC(F)(F)CC3)nn2)CC1 = 0
9. CC(C)(O)[C@H]1CC[C@@H](Nc2cc(Nc3ccnc(-c4cnn(S(=O)(=O)C5CC5)c4)n3)ncc2-c2cc(N3CCC(F)(F)CC3)ccn2)CC1 = 0
10. O=S(=O)(C1CC1)n1cc(-c2nccc(Nc3cc(N[C@H]4CC[C@@H](CO)CC4)c(-c4ccc(CN5CCC(O)CC5)cn4)cn3)n2)cn1 = 1
11. CN(C)Cc1ccnc(-c2cnc(Nc3ccnc(-c4cnn(S(=O)(=O)C5CC5)c4)n3)cc2N[C@H]2CC[C@@](C)(O)CC2)c1 = 0
12. CN1CCN(c2ccc(-c3cnc(Nc4ccnc(-c5cnn(S(=O)(=O)C6CC6)c5)n4)cc3N[C@H]3CC[C@@](C)(O)CC3)nc2)CC1 = 1
13. CC(C)(O)c1cc(-c2cnc(Nc3ccnc(-c4cnn(S(=O)(=O)C5CC5)c4)n3)cc2N[C@H]2CC[C@@H](CO)CC2)ncc1F = 0
14. O=S(=O)(C1CC1)n1cc(-c2nccc(Nc3cc(N[C@H]4CC[C@@H](CO)CC4)c(-c4ccc(N5CCCC5)cn4)cn3)n2)cn1 = 0
15. CC(=O)c1cccc(-c2cnc(Nc3ccnc(-c4cnn(S(=O)(=O)C5CC5)c4)n3)cc2N[C@H]2CC[C@@](C)(O)CC2)n1 = 0
16. CC(C)(O)c1ccnc(-c2cnc(Nc3ccnc(-c4cnn(S(=O)(=O)C5CC5)c4)n3)cc2N[C@H]2CC[C@@H](C(C)(C)O)CC2)c1 = 0

====

ASSAY SYSTEM: EGFR wildtype (Homo sapiens, UniProt P00533)
Sequence (P00533 25-1210): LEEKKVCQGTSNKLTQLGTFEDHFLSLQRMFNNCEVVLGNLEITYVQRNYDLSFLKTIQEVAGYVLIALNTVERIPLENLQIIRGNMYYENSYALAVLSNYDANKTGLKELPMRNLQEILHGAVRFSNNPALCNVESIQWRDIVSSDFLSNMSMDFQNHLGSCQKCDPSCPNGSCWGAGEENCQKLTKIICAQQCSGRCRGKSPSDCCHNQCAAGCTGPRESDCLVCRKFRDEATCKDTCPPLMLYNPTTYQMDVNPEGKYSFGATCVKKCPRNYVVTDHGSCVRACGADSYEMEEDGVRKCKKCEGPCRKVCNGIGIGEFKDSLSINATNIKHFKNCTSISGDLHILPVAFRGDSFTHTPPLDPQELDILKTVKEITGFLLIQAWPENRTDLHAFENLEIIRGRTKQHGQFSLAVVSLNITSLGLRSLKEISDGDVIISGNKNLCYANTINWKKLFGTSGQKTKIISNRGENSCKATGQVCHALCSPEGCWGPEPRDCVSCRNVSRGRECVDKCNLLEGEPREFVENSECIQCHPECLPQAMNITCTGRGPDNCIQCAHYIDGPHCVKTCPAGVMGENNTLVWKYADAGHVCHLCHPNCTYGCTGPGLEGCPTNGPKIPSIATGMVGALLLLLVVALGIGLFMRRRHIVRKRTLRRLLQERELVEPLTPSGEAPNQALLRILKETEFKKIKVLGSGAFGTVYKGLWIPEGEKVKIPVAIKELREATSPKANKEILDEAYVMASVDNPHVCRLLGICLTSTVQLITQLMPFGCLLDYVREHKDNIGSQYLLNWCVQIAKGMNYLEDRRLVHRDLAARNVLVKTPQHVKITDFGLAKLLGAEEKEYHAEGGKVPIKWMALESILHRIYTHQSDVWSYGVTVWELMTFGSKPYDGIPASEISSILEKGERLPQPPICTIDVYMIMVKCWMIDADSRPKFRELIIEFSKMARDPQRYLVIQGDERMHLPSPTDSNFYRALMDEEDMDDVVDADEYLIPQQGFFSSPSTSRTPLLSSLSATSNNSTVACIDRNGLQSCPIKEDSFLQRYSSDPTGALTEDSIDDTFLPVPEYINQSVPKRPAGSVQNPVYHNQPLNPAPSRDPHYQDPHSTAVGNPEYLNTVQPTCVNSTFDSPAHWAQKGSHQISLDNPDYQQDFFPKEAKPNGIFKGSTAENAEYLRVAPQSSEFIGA
TEST DETAILS: Biochemical EGFR kinase assay (Lance Ultra TR-FRET), wildtype
EXPERIMENTAL PARAMETERS: IC50 WT, 100 μM ATP
pIC50: −log10 of the molar value.
Recorded pIC50 for the following compounds
MEASURE: pIC50

1) CS(=O)(=O)c1ccc(-c2cnc(Nc3ccnc(-c4cnn(S(=O)(=O)C5CC5)c4)n3)cc2N[C@H]2CC[C@@H](CO)CC2)nc1 = 6.27
2) C[C@]1(O)CC[C@@H](Nc2cc(Nc3ccnc(-c4cnn(S(=O)(=O)C5CC5)c4)n3)ncc2-c2cc(NCCCO)ccn2)CC1 = 5.40
3) CC(O)(c1ccc(-c2cnc(Nc3ccnc(-c4cnn(S(=O)(=O)C5CC5)c4)n3)cc2N[C@H]2CCC[C@H](CO)C2)nc1)C(F)(F)F (stereo partly drawn) = 5.06
4) CN(C)C[C@H]1CC[C@@H](Nc2cc(Nc3ccnc(-c4cnn(S(=O)(=O)C5CC5)c4)n3)ncc2-c2cccc(F)n2)CC1 = 6.96
5) CN(C)CCOc1ccc(-c2cnc(Nc3ccnc(-c4cnn(S(=O)(=O)C5CC5)c4)n3)cc2N[C@H]2CC[C@@H](CO)CC2)nc1 = 7.00

====

ASSAY SYSTEM: EGFR wildtype (Homo sapiens)
TEST DETAILS: Biochemical EGFR kinase assay (Lance Ultra TR-FRET), wildtype
EXPERIMENTAL PARAMETERS: Km ATP; read-out: IC50 WT (nM) Km ATP
MEASURE: IC50 (nM)

1. CN(C)C[C@H]1CC[C@@H](Nc2cc(Nc3ccnc(-c4cnn(S(=O)(=O)C5CC5)c4)n3)ncc2-c2cnc(OC(F)F)cn2)CC1 = 8.1
2. COc1c(F)ccnc1-c1cnc(Nc2ccnc(-c3cnn(S(=O)(=O)C4CC4)c3)n2)cc1N[C@H]1CC[C@@](C)(O)CC1 = 248
3. O=S(=O)(C1CC1)n1cc(-c2nccc(Nc3cc(N[C@H]4CC[C@@H](CO)CC4)c(-c4ccc(N5CCCC5)cn4)cn3)n2)cn1 = 11.7

====

ASSAY SYSTEM: EGFR del19/T790M/C797S (Homo sapiens, UniProt P00533, C797S/DEL746-750/T790M)
Sequence (P00533 with tags, fused parts or gaps DEL746-750/T790M/C797S): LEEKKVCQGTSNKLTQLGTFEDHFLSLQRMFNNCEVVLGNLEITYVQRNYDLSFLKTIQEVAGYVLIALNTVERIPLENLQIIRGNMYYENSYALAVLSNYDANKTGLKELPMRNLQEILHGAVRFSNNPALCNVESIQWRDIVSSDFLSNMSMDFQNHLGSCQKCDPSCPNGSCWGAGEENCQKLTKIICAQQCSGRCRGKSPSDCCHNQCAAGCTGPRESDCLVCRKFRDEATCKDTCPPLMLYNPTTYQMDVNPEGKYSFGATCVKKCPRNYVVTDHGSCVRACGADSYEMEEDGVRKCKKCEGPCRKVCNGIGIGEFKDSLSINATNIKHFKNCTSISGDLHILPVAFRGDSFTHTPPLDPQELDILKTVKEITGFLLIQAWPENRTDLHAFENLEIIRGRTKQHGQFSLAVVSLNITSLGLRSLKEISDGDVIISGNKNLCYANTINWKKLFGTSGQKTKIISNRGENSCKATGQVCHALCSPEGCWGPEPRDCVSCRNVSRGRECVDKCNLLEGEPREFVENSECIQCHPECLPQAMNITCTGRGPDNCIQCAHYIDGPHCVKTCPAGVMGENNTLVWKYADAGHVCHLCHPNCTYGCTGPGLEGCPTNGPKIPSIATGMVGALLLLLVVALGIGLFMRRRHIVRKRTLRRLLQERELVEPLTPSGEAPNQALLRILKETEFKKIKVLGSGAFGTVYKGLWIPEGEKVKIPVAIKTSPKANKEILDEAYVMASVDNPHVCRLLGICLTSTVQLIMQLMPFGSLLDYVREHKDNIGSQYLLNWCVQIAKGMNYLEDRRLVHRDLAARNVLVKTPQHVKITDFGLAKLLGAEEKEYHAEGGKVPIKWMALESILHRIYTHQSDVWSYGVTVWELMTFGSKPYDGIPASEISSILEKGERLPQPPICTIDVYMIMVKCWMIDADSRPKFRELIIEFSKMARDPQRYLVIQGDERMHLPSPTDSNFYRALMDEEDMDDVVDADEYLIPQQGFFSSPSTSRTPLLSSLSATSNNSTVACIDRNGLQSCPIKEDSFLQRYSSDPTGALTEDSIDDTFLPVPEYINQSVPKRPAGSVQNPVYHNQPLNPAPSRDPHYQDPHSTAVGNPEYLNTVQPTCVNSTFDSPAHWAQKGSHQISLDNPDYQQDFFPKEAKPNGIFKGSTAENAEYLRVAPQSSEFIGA
TEST DETAILS: Biochemical EGFR kinase assay (Lance Ultra TR-FRET), triple mutant del19/T790M/C797S
EXPERIMENTAL PARAMETERS: IC50 del19/T790M/C797S (nM) 100 μM ATP, 100 μM ATP
Rule for this label: Criterion met means IC50 is less than 1 nM; Criterion not met means IC50 is at least 1 nM.

1) CN(C)Cc1ccc(-c2cnc(Nc3ccnc(-c4cnn(S(=O)(=O)C5CC5)c4)n3)cc2N[C@H]2CC[C@@H](C(C)(C)O)CC2)nc1 = Criterion met
2) O=S(=O)(C1CC1)n1cc(-c2nccc(Nc3cc(N[C@H]4CC[C@H](CCO)CC4)c(-c4cc(C(F)F)ccn4)cn3)n2)cn1 = Criterion not met
3) C[C@]1(O)CC[C@@H](Nc2cc(Nc3ccnc(-c4cnn(S(=O)(=O)C5CC5)c4)n3)ncc2-c2ccc(N3CCC(O)CC3)cn2)CC1 = Criterion met
4) CN(C)C[C@H]1CC[C@@H](Nc2cc(Nc3ccnc(-c4cnn(S(=O)(=O)C5CC5)c4)n3)ncc2-c2ccc(N3CCC(F)(F)CC3)nn2)CC1 = Criterion met
5) O=S(=O)(C1CC1)n1cc(-c2nccc(Nc3cc(N[C@H]4CC[C@@H](CO)CC4)c(-c4ccc(N5CCC(F)(F)CC5)nn4)cn3)n2)cn1 = Criterion not met
6) CN1CCN(c2ccc(-c3cnc(Nc4ccnc(-c5cnn(S(=O)(=O)C6CC6)c5)n4)cc3N[C@H]3CC[C@@](C)(O)CC3)nn2)CC1 = Criterion met
7) COC1CN(c2ccc(-c3cnc(Nc4ccnc(-c5cnn(S(=O)(=O)C6CC6)c5)n4)cc3N[C@H]3CC[C@@H](CN(C)C)CC3)nc2)C1 = Criterion met
8) C[C@]1(O)CC[C@@H](Nc2cc(Nc3ccnc(-c4cnn(S(=O)(=O)C5CC5)c4)n3)ncc2-c2ccc(N3CCCC3)cn2)CC1 = Criterion not met
9) O=S(=O)(C1CC1)n1cc(-c2nccc(Nc3cc(N[C@H]4CC[C@@H](CCO)CC4)c(-c4cc(C(F)F)ccn4)cn3)n2)cn1 = Criterion not met
10) O=S(=O)(C1CC1)n1cc(-c2nccc(Nc3cc(NC4CCC(CO)CC4)c(-c4ccc(N5CCOCC5)cn4)cn3)n2)cn1 (stereo not shown) = Criterion not met
11) Cc1ccc(-c2cnc(Nc3ccnc(-c4cnn(S(=O)(=O)C5CC5)c4)n3)cc2N[C@H]2CC[C@@](C)(O)CC2)nn1 = Criterion met
12) CC(C)(O)c1ccc(-c2cnc(Nc3ccnc(-c4cnn(S(=O)(=O)C5CC5)c4)n3)cc2N[C@H]2CC[C@@H](CO)CC2)nn1 = Criterion not met
13) CC(O)c1cccc(-c2cnc(Nc3ccnc(-c4cnn(S(=O)(=O)C5CC5)c4)n3)cc2NC2CCC(C)(O)CC2)n1 (stereo not shown) = Criterion not met
